Origin of measurements: patent US20220184071A1

Experiment description: Pharmacokinetics in infected mice (plasma, kidney, thigh; PopPK)
Assay type: in vivo, mouse
Measurement conditions: mouse, plasma; mice; read-out: protein binding (converted)
Measured property: fraction unbound
Form rule: numeric answer, no unit written next to it.

State its fraction unbound for this compound: O=c1ccc2ncc(=O)n3c2n1C[C@H]3CN1CCC(NCc2cc3c(cn2)OCCC3)CC1 0.76

###

Experiment description: Plasma and urine pharmacokinetics, phase IIa study in women with acute uUTI
Format: in vivo, human
Measurement conditions: female, human, plasma, oral, 1500 mg, plasma; Day 4; read-out: median Tmax
Measured property: Tmax (h)
Give the value in h but do not write h after it.

Answer with reported Tmax of O=c1ccc2ncc(=O)n3c2n1C[C@H]3CN1CCC(NCc2cc3c(cn2)OCCC3)CC1 1.92
